Source listed as ChEMBL document CHEMBL2010731.

assay: Half life in rat at 11 umol/kg, iv; type: ADME, organism-based; settings: in vivo
Endpoint label: half-life (h)
Report as a plain number; the unit h is understood.

Documented half-life of `CCOc1ccc([C@@H](C)Nc2nc(N3CCN(C(C)=O)CC3)nc3c2CN(C(C)C)C3=O)cc1` : 2

---

test: Cmax in rat at 12 umol/kg, po; assay type: ADME, organism-based; parameters: dose 12 umol/kg, route oral; conditions: in vivo
Endpoint label: Cmax
Lab note: write values as number then unit, every time.

Input `CCOc1ccc([C@@H](C)Nc2nc(N3CCN(C(C)=O)CC3)nc3c2CN(C(C)C)C3=O)cc1` . Output Cmax: 100 nM

---

test: Drug excretion in rat faces at high dose, iv; assay type: ADME, Feces; settings: faeces, read-out: Drug excretion
Endpoint label: dose excreted

Documented dose excreted of `CCOc1ccc([C@@H](C)Nc2nc(N3CCN(C(C)=O)CC3)nc3c2CN(C(C)C)C3=O)cc1` : < 3%

---

test: AUC in rat at 12 umol/kg, po; format: ADME, organism-based; settings: plasma
Endpoint label: AUC
A complete answer gives the number and then names the unit.

So, `CCOc1ccc([C@@H](C)Nc2nc(N3CCN(C(C)=O)CC3)nc3c2CN(C(C)C)C3=O)cc1` ? Its AUC was 0.4 µM·h

---

assay: Intrinsic clearance in human liver microsomes at 1 uM; assay type: ADME, Microsome; settings: read-out: CLH
Endpoint label: microsomal CLint at 1 µM (µL/min/mg)
Give the number; µL/min/mg is assumed, so skip it.

Sample `CC(=O)N1CCN(c2nc(NCc3cc4ccccc4cn3)c3c(n2)C(=O)N(C(C)C)C3)CC1` ; microsomal CLint at 1 µM observed: 16

Short answer for `CCOc1ccc([C@@H](C)Nc2nc(N3CCN(C(C)=O)CC3)nc3c2CN(C(C)C)C3=O)cc1F` : microsomal CLint at 1 µM was 17

Short answer for `CCOc1ccc([C@@H](C)Nc2nc(N3CCN(C(C)=O)CC3)nc3c2CN(C(C)C)C3=O)cc1` : microsomal CLint at 1 µM was 10

Please fill in: microsomal CLint at 1 µM reported for `CC(=O)N1CCN(c2nc3c(c(N(C)Cc4cc5ccccc5cn4)n2)CN(C(C)C)C3=O)CC1` = 19

Value of measured microsomal CLint at 1 µM for the entry `COc1ccc([C@@H](C)Nc2nc(N3CCN(C(C)=O)CC3)nc3c2CN(C(C)C)C3=O)cc1` : 4

// sample `CCOc1ccc([C@@H](CC)Nc2nc(N3CCN(C(C)=O)CC3)nc3c2CN(C(C)C)C3=O)cc1` , its microsomal CLint at 1 µM was 10

// field: microsomal CLint at 1 µM; key: `CCOc1ccc([C@H](Nc2nc(N3CCN(C(C)=O)CC3)nc3c2CN(C(C)C)C3=O)C(F)(F)F)cc1` ; value = 5

Item: `CC(=O)N1CCN(c2nc(NCc3ccc(OC(F)(F)F)cc3)c3c(n2)C(=O)N(C(C)C)C3)CC1` | microsomal CLint at 1 µM: 4

Per the records, this compound ( `CC(=O)N1CCN(c2nc(NCc3ccc(Cl)cc3)c3c(n2)C(=O)N(C(C)C)C3)CC1` ) has microsomal CLint at 1 µM equal to 6

Summary for this compound, `CC(=O)N1CCN(c2nc(NCc3ccc(C(F)(F)F)cc3)c3c(n2)C(=O)N(C(C)C)C3)CC1` : microsomal CLint at 1 µM is 31

microsomal CLint at 1 µM measured on `CC(=O)N1CCN(c2nc(NCc3cnc4ccccc4c3)c3c(n2)C(=O)N(C(C)C)C3)CC1` = 11

Value of measured microsomal CLint at 1 µM for the entry `CC(=O)N1CCN(c2nc(N[C@H](C)c3ccc(OC(F)(F)F)cc3)c3c(n2)C(=O)N(C(C)C)C3)CC1` : 22

microsomal CLint at 1 µM in this record for `COc1cc(OC(F)(F)F)ccc1CNc1nc(N2CCN(C(C)=O)CC2)nc2c1CN(C(C)C)C2=O` : 31

Entry `CCOc1ncc([C@@H](C)Nc2nc(N3CCN(C(C)=O)CC3)nc3c2CN(C(C)C)C3=O)cc1F` , microsomal CLint at 1 µM reported as 7
